Data origin: PubChem BioAssay (NCATS)

# protocolNotes: Cell Viability - LYMP2-022 (AID 987);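 further: cells exposed to compound for 24 hr; 0% = DMSO alone and full effect = tetraoctylammonium bromide at 92 µM; nearly all actives have a fitted effect of over 55% in size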
# conditionParameters: LYMP2-022 lymphoblastoid cell viability; series mostly up to 92.2 µM
Records with an inconclusive call do not appear. The source made the active and inactive calls. The call rests on the fitted dose curve; in most records, active means well fitted cell-killing curve with a large enough effect; inconclusive means small, poorly fitted or top-dose-only effect; inactive means flat fitted curve, though single readings scatter.
Form entry, call: pick from 1.0 = active, 0.0 = inactive

What classification did `CCNc1cc(O)ccc1C` end up with in this test?
0.0

What classification did `O=[N+]([O-])c1cc(C(F)(F)F)ccc1Cl` end up with in this test?
0.0

What classification did `ON=C1CCCCC1` end up with in this test?
0.0

What classification did `OC(CCl)CCl` end up with in this test?
0.0

What classification did `NC(=O)/N=N/C(N)=O` end up with in this test?
0.0
